- target under test: T1, Homo sapiens factor Bb protein (human, UniProt P00751 260-764)
- T1 construct: Bought from CompTech (A155); also called complement factor Bb; human factor Bb
- T1 sequence (P00751 260-764 limits assumed): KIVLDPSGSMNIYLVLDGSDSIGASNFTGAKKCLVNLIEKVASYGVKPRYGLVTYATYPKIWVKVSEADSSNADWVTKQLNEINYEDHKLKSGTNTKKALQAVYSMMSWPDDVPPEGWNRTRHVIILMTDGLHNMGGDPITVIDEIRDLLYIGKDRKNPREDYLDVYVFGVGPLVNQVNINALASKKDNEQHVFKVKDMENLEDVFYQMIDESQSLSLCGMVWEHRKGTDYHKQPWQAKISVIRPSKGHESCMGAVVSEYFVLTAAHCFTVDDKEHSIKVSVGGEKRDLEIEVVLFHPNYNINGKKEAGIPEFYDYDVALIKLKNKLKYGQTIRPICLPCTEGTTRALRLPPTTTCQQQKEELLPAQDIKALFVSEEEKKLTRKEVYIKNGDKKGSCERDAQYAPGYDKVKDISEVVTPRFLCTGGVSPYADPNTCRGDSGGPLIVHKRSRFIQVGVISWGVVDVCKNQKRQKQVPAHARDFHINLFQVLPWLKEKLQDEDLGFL
- method summary: SPR single cycle kinetics, IgG on Protein A chip, factor Bb analyte
Property: kon; scope: individual binders
Number only, in M⁻¹ s⁻¹; omit the unit.

VH2/Vκ3 (antibody, V domains shown) VH: EVQLVESGGGLVKPGGSLRLSCAASGFTFSNYAMSWVRQAPGKGLEWVATISNRGSYTYYPDSVKGRFTISRDNAKNSLYLQMNSLRAEDTALYYCARERPMDYWGQGTLVTVSS VL: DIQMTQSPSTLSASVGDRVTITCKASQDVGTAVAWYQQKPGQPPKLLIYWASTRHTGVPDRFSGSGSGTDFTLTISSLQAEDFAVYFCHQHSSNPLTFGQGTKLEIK | 252000
VH2/Vκ2 (antibody, V domains shown) VH: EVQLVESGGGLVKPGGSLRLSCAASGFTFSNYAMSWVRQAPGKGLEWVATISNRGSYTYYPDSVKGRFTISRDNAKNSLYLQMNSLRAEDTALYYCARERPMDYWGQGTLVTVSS VL: DIVMTQSPSTLSASVGDRVTITCKASQDVGTAVAWYQQKPGQPPKLLIYWASTRHTGVPDRFTGSGSGTDFTLTISSLQAEDFAVYFCHQHSSNPLTFGQGTKLEIK | 234000
VH3/Vκ4 (antibody, V domains shown) VH: EVQLVESGGGLVKPGGSLRLSCAASGFTFSNYAMSWVRQAPGKGLEWVATISNRGSYTYYADSVKGRFTISRDNAKNSLYLQMNSLRAEDTALYYCARERPMDYWGQGTLVTVSS VL: DIQMTQSPSTLSASVGDRVTITCRASQDVGTAVAWYQQKPGQPPKLLIYWASTRHTGVPDRFSGSGSGTDFTLTISSLQAEDFAVYYCHQHSSNPLTFGQGTKLEIK | 267000
VH1/Vκ1 (antibody, V domains shown) VH: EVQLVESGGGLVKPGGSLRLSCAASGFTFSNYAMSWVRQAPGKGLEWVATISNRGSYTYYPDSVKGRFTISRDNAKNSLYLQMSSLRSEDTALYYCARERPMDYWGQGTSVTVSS VL: DIVMTQSPSFLSASVGDRVTITCKASQDVGTAVAWYQQKPGQPPKLLIYWASTRHTGVPDRFTGSGSGTDFTLTISSLQSEDFAVYFCHQHSSNPLTFGQGTKLEIK | 574000

Please examine the following record next.
# query: kon of entry VH3/Vκ1 (antibody, V domains shown) VH: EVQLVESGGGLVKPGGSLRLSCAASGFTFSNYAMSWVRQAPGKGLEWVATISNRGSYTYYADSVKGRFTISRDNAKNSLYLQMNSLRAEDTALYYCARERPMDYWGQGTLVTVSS VL: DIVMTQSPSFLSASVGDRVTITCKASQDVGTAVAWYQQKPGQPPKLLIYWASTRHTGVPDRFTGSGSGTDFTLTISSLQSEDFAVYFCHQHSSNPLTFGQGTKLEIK
291000
